# assay details: Single-dose pharmacokinetics in rats (oral and IV)
# Format: in vivo
# particulars: male, Sprague-Dawley, rat, plasma; IV 2 mg/kg, mean (S.D.)
reported metric: half-life

Dear colleague, I am looking for the recorded half-life of the following compound: Cc1ccc(COC(=O)N2CC[C@H](CNc3ncccn3)[C@H](F)C2)cc1 [Form II] 1.7 h

###

# assay details: Repeated once-daily oral dosing with food (Days 1-7) in healthy subjects, PK and PD
# Type: in vivo, human
# particulars: both sexes, human, plasma, oral, 16 mg, young subjects, 16 mg, Day 7; read-out: Cmax, Mean (SD)
reported metric: Cmax (ng/mL)
Only the number, expressed in ng/mL, is required.

Dear colleague, I am looking for the recorded Cmax of the following compound: Cc1ccc(COC(=O)N2CC[C@H](CNc3ncccn3)[C@H](F)C2)cc1 [Form II] 413
